test system: SK-OV-3; assay: NCI tumour cell line growth inhibition, 48 h
Activity calls are given as the source filed them. Rule as the data show it: active = GI50 up to about 1.1 µM and inactive = higher.
recorded-metric: GI50

Qu. Consider the compound O=C(CC(=O)N1N=C(N(c2ccccc2)c2ccccc2)CC1c1ccccc1)Nc1ccc(Cl)cc1 (stereo not given) . State its measured GI50.
Ans. > 100 µM (inactive)

Qu. Consider the compound COc1cc(/C=C2/SC(c3ccccc3)N(c3cccc(NC(C)=O)c3)C2=O)cc(OC)c1OC (stereo not given) . State its measured GI50.
Ans. 75 µM (inactive)

Qu. Consider the compound CC1CCc2sc3nc4n(c(=O)c3c2C1)CC(C)S4 (stereo not given) . State its measured GI50.
Ans. 29.7 µM (inactive)

Qu. Consider the compound O=NN(CCCl)C(=O)N[C@H]1CC[C@H](CC(=O)O)CC1 . State its measured GI50.
Ans. > 100 µM (inactive)

Turning now to a further record.
Qu. Consider the compound COc1cccc2c1C(=O)c1c(O)c3c(c(O)c1C2=O)CC(O)(C(=O)CO)CC3OC1CC(N2CCOCC2C#N)C(O)C(C)O1 (stereo not given) . State its measured GI50.
Ans. > 0.01 µM (active)
